System: SN12C (renal cancer)
procedure.summary: NCI 60-cell one-dose antiproliferative screen
Type: cell-based, human
run.parameters: one dose 10 μM
endpoint: GI%

Cc1cc(C)n(-c2ccc3nnc(-c4ccccc4)n3n2)n1 — (— GI% is below 15%)
COc1ccc(-c2nnc3ccc(NN=Cc4ccccc4)nn23)cc1 — (— GI% is below 15%)
COc1ccc(-c2nnc3ccc(NNC(C)=O)nn23)cc1 — (— GI% is below 15%)
